Hello, the source for this data is the supplement of paper PMC6089552, in case you need it.

test system: A673/TR/shEF; experiment: cell viability (LOESS-normalised, relative to median of negative controls) (log2 ratio); higher = more viable cells (less compound effect), active = hit call of the paper (over 3 MAD below the median); conditions: 8.3 µM; library screen: screen3; EWS-FLI1 expression: low (doxycycline-induced shRNA knockdown); treatment time: 72 h
About 300 (9.4%) of roughly 3,200 compounds showed activity. Shown is part of a subset that was picked to be rich in actives.
Result category, one only: True = active, False = inactive

Q: Look up the recorded call for CCCCCCCCCCC[C@@H](C[C@@H]1OC(=O)[C@H]1CCCCCC)OC(=O)[C@H](CC(C)C)NC=O in this test.
Ans: False

Q: Look up the recorded call for COC(=O)Nc1ccc(-c2nc(N3CCOCC3)c3cnn(C4CCN(Cc5cccnc5)CC4)c3n2)cc1 in this test.
Ans: True

Q: Look up the recorded call for Cc1ccc(C(=O)Nc2ccc(CN3CCN(C)CC3)c(C(F)(F)F)c2)cc1C#Cc1cnc2cccnn12 in this test.
Ans: True

Q: Look up the recorded call for C[C@@H](Oc1cc(-c2cnn(C3CCNCC3)c2)cnc1N)c1c(Cl)ccc(F)c1Cl in this test.
Ans: False

Q: Look up the recorded call for CO[C@H]1C[C@@H]2CC[C@@H](C)[C@@](O)(O2)C(=O)C(=O)N2CCCC[C@H]2C(=O)O[C@H]([C@H](C)C[C@@H]2CC[C@@H](O)[C@H](OC)C2)CC(=O)[C@H](C)/C=C(\C)[C@@H](O)[C@@H](OC)C(=O)[C@H](C)C[C@H](C)/C=C/C=C/C=C/1C in this test.
Ans: True

Q: Look up the recorded call for Cn1cncc1[C@@](N)(c1ccc(Cl)cc1)c1ccc2c(c1)c(-c1cccc(Cl)c1)cc(=O)n2C in this test.
Ans: True

Next:
Q: Look up the recorded call for c1ccc([C@H]2CN3CCSC3=N2)cc1 in this test.
Ans: False
